Biological target: oxytocin receptor (OXTR), hOTR (Homo sapiens, UniProt P30559)
Construct: expressed in transfected cells
Test: IP1 accumulation assay, OTR-expressing HEK-293 cells (agonist and antagonist assessment)
Assay type: cell-based
Details: HEK293; read-out: OXTR Emax (% OXT)
observation-type: Emax (%)

1 = Cn1ncc2c1Nc1ccccc1N(C(=O)c1cccc(F)c1)C2 [WJ0679]
2 = CCc1ccc(C(=O)N2Cc3cnn(C)c3Nc3ccccc32)cc1 [TRGA99]
3 = Cn1ncc2c1Nc1ccccc1N(C(=O)C13CC4CC(F)(CC(F)(C4)C1)C3)C2 [WJ0807dF]
Query: Using measured Emax, arrange the molecules from above in descending sequence. Sort and list the labels as requested.
Reply: 3, 1, 2
(3: 26.7%, 1: 12.6%, 2: 8%)

---

Molecular target: vasopressin 1a receptor (V1aR) (Homo sapiens)
Sequence (P37288 whole entry): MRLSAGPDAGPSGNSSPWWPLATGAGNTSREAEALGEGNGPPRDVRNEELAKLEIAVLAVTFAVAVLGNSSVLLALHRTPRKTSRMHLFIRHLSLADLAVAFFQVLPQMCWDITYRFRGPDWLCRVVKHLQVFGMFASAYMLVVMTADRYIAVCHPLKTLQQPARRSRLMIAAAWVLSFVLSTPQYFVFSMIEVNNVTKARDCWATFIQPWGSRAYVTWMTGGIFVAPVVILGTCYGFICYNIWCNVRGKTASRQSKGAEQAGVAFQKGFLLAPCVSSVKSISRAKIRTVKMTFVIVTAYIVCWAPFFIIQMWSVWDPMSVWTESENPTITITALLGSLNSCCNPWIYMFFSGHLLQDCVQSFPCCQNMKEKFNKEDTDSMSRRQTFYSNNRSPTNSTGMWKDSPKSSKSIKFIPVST
Test: IP1 accumulation assay, V1aR-expressing HEK-293 cells (agonist and antagonist assessment)
Conditions: antagonist assessment vs AVP 25 nM (~EC70), IP1
pIC50: −log10 of the molar value.
observation-type: pIC50

Note to self: pIC50 of Cn1ncc2c1Nc1ccccc1N(C(=O)c1ccc(OCc3ccccc3)cc1)C2 [BzE] with vasopressin 1a receptor (V1aR) (Homo sapiens) was 5.80

pIC50 for vasopressin 1a receptor (V1aR) (Homo sapiens) with input COc1cc(OC)cc(C(=O)N2Cc3cnn(C)c3Nc3ccccc32)c1 [WJ0629] equals 7.02

Measured pIC50 (vasopressin 1a receptor (V1aR) (Homo sapiens)), entry Cc1cccc(C(=O)N2Cc3cnn(C)c3Nc3ccccc32)c1 [WJ0823] : < 5.00

---

observation-type: melting point

// solved cases for melting point follow
smiles-repr: Cn1ncc2c1Nc1ccccc1N(C(=O)c1ccccn1)C2
melting point: 269 to 271 °C (dec.)
//
smiles-repr: Cc1ccc(C(=O)N2Cc3cnn(C)c3Nc3ccccc32)cc1
melting point: 265 °C (dec.)

Okay, next one:
// COc1cc(OC)cc(C(=O)N2Cc3cnn(C)c3Nc3ccccc32)c1 : melting point value = 279 to 281 °C (dec.)

---

Molecular target: UniProt:P37288
observation-type: Ki (nM)

The following molecules have reported results that may help.
molecule: Cn1ncc2c1Nc1ccccc1N(C(=O)c1cccc(F)c1)C2 [WJ0679]
unit-string: nM
Ki: 105
//
molecule: Cn1ncc2c1Nc1ccccc1N(C(=O)c1ccc(C(F)(F)F)cc1)C2 [WJ0677]
unit-string: nM
Ki: 96.9

A = Cn1ncc2c1Nc1ccccc1N(C(=O)C13CC4CC(CC(F)(C4)C1)C3)C2 [WJ0807mF]
B = Cn1ncc2c1Nc1ccccc1N(C(=O)c1ccccc1)C2 [WJ0685]
Query: Out of A and B , name the one with the higher Ki. // caller expects the label of the chosen entry
Reply: A

---

Molecular target: oxytocin receptor (OXTR), hOTR (Homo sapiens, UniProt P30559)
Assay: IP1 accumulation assay, OTR-expressing HEK-293 cells (agonist and antagonist assessment)
Settings: agonist assessment, IP1, 1 h
observation-type: EC50 (µM)

A = Cn1ncc2c1Nc1ccccc1N(C(=O)C1CCCC1)C2
B = Cn1ncc2c1Nc1ccccc1N(C(=O)c1ccc3c(c1)OCO3)C2
Query: Between the entries labelled A and B , which has a larger EC50 value on record? Return value: the label identifying the chosen record.
Reply: A

---

# UniProt:P37288: Ki values follow
observation-type: Ki (nM)

Check out these entries, answers already filled in.
molecule: Cn1ncc2c1Nc1ccccc1N(C(=O)c1ccc(Cl)cc1)C2
unit-string: nM
Ki: 174

molecule: Cc1ccc(C(=O)N2Cc3cnn(C)c3Nc3ccccc32)cc1
unit-string: nM
Ki: 12.4

molecule: Cn1ncc2c1Nc1ccccc1N(C(=O)C1CCCC1)C2
unit-string: nM
Ki: 553

1 = Cn1ncc2c1Nc1ccccc1N(C(=O)c1ccccn1)C2
2 = Cn1ncc2c1Nc1ccccc1N(C(=O)c1ccncc1)C2
3 = Cc1ccc(C(=O)N2Cc3cnn(C)c3Nc3ccccc32)cc1C
Query: Order each entry by recorded Ki, climbing from the minimum. API: response body holds the labels in the requested order.
Reply: 3, 2, 1

P = Cn1ncc2c1Nc1ccccc1N(C(=O)C13CC4CC(F)(CC(F)(C4)C1)C3)C2 [WJ0807dF]
Q = Cn1ncc2c1Nc1ccccc1N(C(=O)c1ccc3c(c1)OCO3)C2
R = COc1ccc2c(c1)N(C(=O)c1ccccc1)Cc1cnn(C)c1N2 [WJ07117MeO]
Query: Form: Sort by [Ki] Order [ ascending ] Could you list the labels in the order requested?
Reply: Q, R, P

---

Target: oxytocin receptor (OXTR), hOTR (Homo sapiens)
Sequence (P30559 1-389): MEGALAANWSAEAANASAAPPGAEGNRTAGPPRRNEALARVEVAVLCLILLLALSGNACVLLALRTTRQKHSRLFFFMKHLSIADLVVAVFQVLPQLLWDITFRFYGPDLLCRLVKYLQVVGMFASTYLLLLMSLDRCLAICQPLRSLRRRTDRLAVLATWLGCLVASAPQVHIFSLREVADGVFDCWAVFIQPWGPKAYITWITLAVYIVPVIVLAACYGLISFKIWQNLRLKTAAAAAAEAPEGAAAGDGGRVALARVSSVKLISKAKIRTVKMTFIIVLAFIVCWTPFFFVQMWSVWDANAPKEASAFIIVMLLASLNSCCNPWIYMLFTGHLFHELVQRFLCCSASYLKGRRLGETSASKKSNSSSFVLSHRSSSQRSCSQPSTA
observation-type: Ki (nM)

compound: COc1cc(OC)cc(C(=O)N2Cc3cnn(C)c3Nc3ccccc32)c1
unit-string: nM
Ki: 316

a = Cn1ncc2c1Nc1ccccc1N(C(=O)c1cc(F)cc(F)c1)C2
b = Cn1ncc2c1Nc1ccccc1N(C(=O)C1CCCCC1)C2
c = Cn1ncc2c1Nc1ccccc1N(C(=O)c1ccc(Cl)cc1)C2
Query: Rank ascending by Ki. The response must list the labels following the requested ordering.
Reply: c, a, b

---

Target: oxytocin receptor (OXTR), hOTR (Homo sapiens, UniProt P30559)
Construct: expressed in transfected cells
Assay: IP1 accumulation assay, OTR-expressing HEK-293 cells (agonist and antagonist assessment)
Assay type: cell-based
Settings: agonist assessment, IP1
Description: Human embryonic kidney cells (HEK-293) transfected to stably express untagged hOTR and V1aR using the Flp-In™ T-REx™ system (Life Technologies, Carlsbad, Calif. USA) were established as reported in Jorgensen et al., 2016 (the entire disclosure of which is hereby incorporated by reference). Cells were subsequently maintained in 10% DMEM containing hygromycin (80 μg/ml), penicillin (100 U/ml), streptomycin (0.1 mg/ml) and blasticidine S hydrochloride (15 μg/ml). […]
observation-type: EC50 (OXTR agonist potency, mean ± s.d.) (nM)

compound: Cc1ccc(C(=O)N2Cc3cnn(C)c3Nc3ccccc32)cc1 [WJ0653]
tested-target: oxytocin receptor (OXTR), hOTR (Homo sapiens, UniProt P30559)
meas-value: 238.8
//
compound: Cn1ncc2c1Nc1ccccc1N(C(=O)c1cc(F)cc(F)c1)C2 [WJ0681]
tested-target: oxytocin receptor (OXTR), hOTR (Homo sapiens, UniProt P30559)
meas-value: 272.7
//
compound: Cn1ncc2c1Nc1ccccc1N(C(=O)c1ccc(Cl)c(Cl)c1)C2 [WJ0824]
tested-target: oxytocin receptor (OXTR), hOTR (Homo sapiens, UniProt P30559)
meas-value: 321.8
//
compound: COc1ccc(C(=O)N2Cc3cnn(C)c3Nc3ccccc32)cc1 [WJ0661]
tested-target: oxytocin receptor (OXTR), hOTR (Homo sapiens, UniProt P30559)
meas-value: 203.8

A = Cc1ccc(C(=O)N2Cc3cnn(C)c3Nc3ccccc32)cc1C [WJ5103]
B = Cc1ccc(C(=O)N2Cc3cnn(C)c3Nc3ccccc32)cc1F [WJ0683]
Query: Between the entries labeled A and B , whose measured EC50 (OXTR agonist potency, mean ± s.d.) is lower? Selection: enter the item's label.
Reply: A

---

Molecular target: oxytocin receptor (OXTR), hOTR (Homo sapiens, UniProt P30559)
Construct: expressed in transfected cells
Test: IP1 accumulation assay, OTR-expressing HEK-293 cells (agonist and antagonist assessment)
Type: cell-based
Conditions: ratio of OXTR functional potency to V1aR functional potency; 'OT only' = function at OXTR only
observation-type: OV function

molecule: Cn1ncc2c1Nc1ccccc1N(C(=O)c1cccc(F)c1)C2 [WJ0679]
observation-type: OV function
meas-value: 0.18
//
molecule: COc1cccc(C(=O)N2Cc3cnn(C)c3Nc3ccccc32)c1 [WJ0657]
observation-type: OV function
meas-value: 0.45
//
molecule: Cn1ncc2c1Nc1ccccc1N(C(=O)c1ccc3c(c1)OCO3)C2 [TRGA95]
observation-type: OV function
meas-value: 0.06
//
molecule: Cn1ncc2c1Nc1ccccc1N(C(=O)c1ccc(OCc3ccccc3)cc1)C2 [BzE]
observation-type: OV function
meas-value: 0.11
//
molecule: Cn1ncc2c1Nc1ccccc1N(C(=O)c1cc(O)cc(O)c1)C2 [WJ0623]
observation-type: OV function
meas-value: 8.59

A = Cc1ccc(C(=O)N2Cc3cnn(C)c3Nc3ccccc32)cc1C [WJ5103]
B = Cc1ccc(C(=O)N2Cc3cnn(C)c3Nc3ccccc32)cc1 [WJ0653]
C = Cn1ncc2c1Nc1ccccc1N(C(=O)c1cc(F)cc(F)c1)C2 [WJ0681]
D = COc1cc(OC)cc(C(=O)N2Cc3cnn(C)c3Nc3ccccc32)c1 [WJ0629]
E = CCc1ccc(C(=O)N2Cc3cnn(C)c3Nc3ccccc32)cc1 [TRGA99]
Query: Rank entries according to their OV function, from the largest number down. List the labels in the requested order.
Reply: D, A, C, B, E

1 = Cc1ccc(C(=O)N2Cc3cnn(C)c3Nc3ccccc32)cc1F [WJ0683]
2 = COc1ccc(C(=O)N2Cc3cnn(C)c3Nc3ccccc32)cc1 [WJ0661]
3 = Cc1cc(C(=O)N2Cc3cnn(C)c3Nc3ccccc32)ccc1CNC(=O)N1CCN(Cc2cc(O)cc(O)c2)CC1 [WAY, reference compound]
Query: Kindly order the items shown according to OV function, from the highest value down. Enter labels, ranked according to the request.
Reply: 3, 2, 1
